# Test system: MV4;11 cells
# experiment-summary: Cell viability assay (CellTiter-Glo) in MV4;11 cells, alone or with gilteritinib
# Type: cell-based
# recorded-conditions: Homo sapiens, 72 h; MV4;11 cells, compound alone (without gilteritinib), three days, CellTiter-Glo; read-out: MV4; 11 IC50
Hi there, I'd appreciate the recorded IC50 for every entry that follows.

Take a look at these entries with their results.
Ask: Query IC50 for O=C1CCC(N2Cc3ccc(CCCCCCC(=O)N4CCC(c5ccccc5)CC4)cc3C2=O)C(=O)N1 (centres unmarked) [GS-099]
Reply: 100 to 1000 nM

Ask: Could you please provide reported IC50 for O=C1CCC(N2C(=O)c3ccc(NCCC4CC(Cn5cc(-c6cnc7ccccc7n6)cn5)C4)cc3C2=O)C(=O)N1 (centres unmarked) [GS-558] ? Thanks!
Reply: 100 to 1000 nM

Ask: Identify measured IC50 corresponding to O=C1CCC(N2C(=O)c3ccc(NCCCCCCn4cc(-c5ccccc5)cn4)cc3C2=O)C(=O)N1 (centres unmarked) [GS-496]
Reply: 100 to 1000 nM

Ask: Complete the entry with IC50 for O=C1CCC(N2Cc3ccc(CCCCCCC(=O)N4CCC(c5ccc(Cl)cc5)CC4)cc3C2=O)C(=O)N1 (centres unmarked) [GS-116]
Reply: 10 to 100 nM

Each compound below has a reported value. Please supply its IC50.
1. O=C1CCC(N2Cc3ccc(CCCCCC(=O)N4CCC(c5ccc(Cl)cc5)CC4)cc3C2=O)C(=O)N1 (centres unmarked) [GS-114]
2. O=C1CCC(N2C(=O)c3ccc(NCCNc4cccc(N5CCC(c6nccs6)CC5)c4)cc3C2=O)C(=O)N1 (centres unmarked) [GS-370]
3. O=C1CCC(N2Cc3cc(NC(=O)Cc4cccc(N5CCC(c6ccccc6)CC5)c4)ccc3C2=O)C(=O)N1 (centres unmarked) [GS-501]
4. O=C1CCC(N2C(=O)c3ccc(NCCCc4cccc(N5CCC(c6ccccc6)CC5)c4F)cc3C2=O)C(=O)N1 (centres unmarked) [GS-507]

Reply:
1: 100 to 1000 nM; 2: < 10 nM; 3: < 10 nM; 4: > 1000 nM

====

# System: MOLM-13 cells
# experiment-summary: Cell viability assay (CellTiter-Glo) in MOLM-13 cells, alone or with gilteritinib
# Format: cell-based
# recorded-conditions: Homo sapiens, MOLM-13, 72 h, MOLM-13 cells, with gilteritinib 20 nM, three days, CellTiter-Glo; read-out: MOLM-13 IC50 gilteritinib
observation-type: IC50

Examples with their reported IC50 follow.
Ask: Tell us which IC50 value is on record for Nc1cccc(-c2cn([C@H]3C[C@H](CNc4ccc5c(c4)C(=O)N(C4CCC(=O)NC4=O)C5=O)C3)nc2C2CC2)n1 (stereo partly shown)
Reply: 100 to 1000 nM

Ask: Supply recorded IC50 for O=C1CCC(N2C(=O)c3ccc(NC[C@H]4C[C@H](n5cc(-c6ccc7c(n6)CCCC7)c(C6CC6)n5)C4)cc3C2=O)C(=O)N1 (stereo partly shown) here.
Reply: < 10 nM

Ask: Give IC50 for the following compound: O=C1CCC(N2C(=O)c3ccc(NCCC[C@H]4C[C@H](n5cc(-c6cccc(C7CCOCC7)n6)cn5)C4)cc3C2=O)C(=O)N1 (stereo partly shown)
Reply: 10 to 100 nM

Ask: Give reported IC50 value for O=C1CCC(N2C(=O)c3ccc(NCCCCCC(=O)N4CCC(F)(c5ccccc5)CC4)cc3C2=O)C(=O)N1 (stereo not shown)
Reply: < 10 nM

Ask: Annotate the compound O=C1CCC(N2C(=O)c3ccc(NC[C@H]4C[C@H](n5cc(-c6ccc(Cl)cn6)c(C6CC6)n5)C4)cc3C2=O)C(=O)N1 (stereo partly shown) with its measured IC50.
Reply: < 10 nM

Ask: Give the measured IC50 for O=C1CCC(N2C(=O)c3ccc(NCCC[C@H]4C[C@H](n5cc(-c6cccc(N7CCOCC7)n6)c(C6CC6)n5)C4)cc3C2=O)C(=O)N1 (stereo partly shown)
Reply: 100 to 1000 nM

Ask: State, in one line, measured IC50 of O=C1CCC(N2C(=O)c3ccc(NCCCCC4(N5CCC(n6cc(-c7cnc8ccccc8n7)cn6)CC5)CC4)cc3C2=O)C(=O)N1 (stereo not shown)
Reply: 10 to 100 nM

Ask: Using known records, supply IC50 for O=C(CNc1cccc(N2CCC(n3cc(-c4cnc5ccccc5n4)cn3)CC2)c1)NCc1scc2c1CN(C1CCC(=O)NC1=O)C2=O (stereo not shown)
Reply: < 10 nM

Need IC50 for each of these compounds.
1. O=C1CCC(N2Cc3c(NC4CCCC(CCCn5cc(-c6cnc7ccccc7n6)cn5)C4)cccc3C2=O)C(=O)N1 (stereo not shown)
2. O=C1CCC(N2C(=O)c3ccc(CNC(=O)C(F)(F)c4cccc(-n5cc(-c6cnc7ccccc7n6)cn5)c4)cc3C2=O)C(=O)N1 (stereo not shown)
3. CN1CCN(c2ccc3nc(-c4cnn([C@H]5C[C@H](CCCNc6ccc7c(c6)C(=O)N(C6CCC(=O)NC6=O)C7=O)C5)c4)cnc3c2)CC1 (stereo partly shown)
4. N#Cc1ccc2ncc(-c3cnn([C@H]4C[C@H](CCCNc5ccc6c(c5)C(=O)N(C5CCC(=O)NC5=O)C6=O)C4)c3)nc2c1 (stereo partly shown)
5. O=C1CCC(N2Cc3c(Nc4cccc(Nc5cccc(N6CCC(n7cc(-c8cnc9ccccc9n8)cn7)CC6)c5)n4)cccc3C2=O)C(=O)N1 (stereo not shown)

Reply:
1. > 1000 nM
2. > 1000 nM
3. < 10 nM
4. < 10 nM
5. < 10 nM

====

For each record, write down the corresponding pIC50.
# System: MV4;11 cells
# experiment-summary: Cell viability assay (CellTiter-Glo) in MV4;11 cells, alone or with gilteritinib
# Assay type: cell-based
# recorded-conditions: Homo sapiens, MV4-11, 72 h, MV4;11 cells, compound with gilteritinib 10 nM, three days, CellTiter-Glo; read-out: MV4; 11 IC50 gilteritinib
pIC50: −log10 of the molar value.

Below, each entry is followed by its recorded pIC50 result.
Ask: Look up and state reported pIC50 for O=C1CCC(N2Cc3cc(CNC(=O)C(F)(F)CCC(=O)N4CCC(n5cc(-c6cnc7ccccc7n6)cn5)CC4)ccc3C2=O)C(=O)N1 (stereo not shown)
Reply: 7.00 to 8.00

Ask: Look up and state reported pIC50 for Cc1nn(CCCCCCNc2ccc3c(c2)C(=O)N(C2CCC(=O)NC2=O)C3=O)cc1-c1cnc2ccccc2n1 (stereo not shown)
Reply: > 8.00

Ask: Supply reported pIC50 belonging to this compound: Cc1cccc(-c2cnn(CCCCCCNc3ccc4c(c3)C(=O)N(C3CCC(=O)NC3=O)C4=O)c2)c1 (stereo not shown)
Reply: > 8.00

For each of the compounds below, note its pIC50.
1. Cc1cccc(-c2cn([C@H]3C[C@H](CNc4ccc5c(c4)C(=O)N(C4CCC(=O)NC4=O)C5=O)C3)nc2C)n1 (stereo partly shown)
2. O=C1CCC(N2C(=O)c3ccc(NCCCCCCn4cc(-c5cnc6ccccc6n5)c(C5CC5)n4)cc3C2=O)C(=O)N1 (stereo not shown)
3. C[C@H]1CN(c2ccc3ncc(-c4cnn([C@H]5C[C@H](CCCNc6ccc7c(c6)C(=O)N(C6CCC(=O)NC6=O)C7=O)C5)c4)nc3c2)CCN1C (stereo partly shown)

Reply:
< 6.00
7.00 to 8.00
> 8.00

Ask: State, in one line, measured pIC50 of O=C(Cc1cccc(N2CCN(c3ccccn3)CC2)c1)NCc1ccc2c(c1)CN(C1CCC(=O)NC1=O)C2=O (stereo not shown)
Reply: > 8.00

====

# Tested on: MOLM-13 cells
# experiment-summary: Cell viability assay (CellTiter-Glo) in MOLM-13 cells, alone or with gilteritinib
# Format: cell-based
# recorded-conditions: Homo sapiens, MOLM-13, 72 h, MOLM-13 cells, with gilteritinib 20 nM, three days, CellTiter-Glo; read-out: MOLM-13 IC50 gilteritinib
observation-type: IC50

Completed entries (count: 6):
Ask: State IC50 (MOLM-13 cells) of O=C1CCC(N2C(=O)c3ccc(NCCCN4CCCC(n5cc(-c6cnc7ccccc7n6)cn5)C4)cc3C2=O)C(=O)N1 (centres unmarked) .
Reply: 10 to 100 nM

Ask: Find IC50 for O=C1CCC(N2C(=O)c3ccc(NCCC[C@H]4C[C@H](n5cc(-c6cnc7ccc(N8C[C@H]9C[C@@H]8CO9)cc7n6)cn5)C4)cc3C2=O)C(=O)N1 (some centres unmarked) on MOLM-13 cells and write it down.
Reply: < 10 nM

Ask: Provide IC50, system MOLM-13 cells, entry O=C1CCC(N2C(=O)c3ccc(NCCCN4CC(n5cc(-c6cnc7ccccc7n6)cn5)C4)cc3C2=O)C(=O)N1 (centres unmarked)
Reply: 100 to 1000 nM

Ask: Answer with IC50 of O=C1CCC(N2C(=O)c3ccc(NCCC[C@H]4C[C@H](n5cc(-c6cnc7ccc(N8CCNC9(CC9)C8)cc7n6)cn5)C4)cc3C2=O)C(=O)N1 (some centres unmarked) measured for MOLM-13 cells.
Reply: 100 to 1000 nM

Ask: Answer briefly: IC50 recorded on MOLM-13 cells for O=C1CCC(N2C(=O)c3ccc(NC[C@H]4C[C@H](n5cc(-c6cnc7ccc(C8CCOCC8)cc7n6)cn5)C4)cc3C2=O)C(=O)N1 (some centres unmarked)
Reply: 10 to 100 nM

Ask: Consider the compound O=C1CCC(N2Cc3cc(Nc4ccnc(Nc5ccc6c(c5)CC(N5CCC(n7cc(-c8cnc9ccccc9n8)cn7)CC5)C6)n4)ccc3C2=O)C(=O)N1 (centres unmarked) tested on MOLM-13 cells; state its IC50.
Reply: 100 to 1000 nM

I'm hoping you can list IC50 for every compound here, please.
1. O=C1CCC(N2C(=O)c3ccc(NCCCCCC(=O)N4CCC(n5cc(-c6ncccn6)cn5)CC4)cc3C2=O)C(=O)N1 (centres unmarked)
2. O=C1CCC(N2C(=O)c3ccc(NCCC[C@H]4C[C@H](n5cc(-c6cnc7c(Cl)cccc7n6)cn5)C4)cc3C2=O)C(=O)N1 (some centres unmarked)
3. Cc1nn(C2CC(CCCNc3ccc4c(c3)C(=O)N(C3CCC(=O)NC3=O)C4=O)C2)c(C)c1-c1cnc2ccccc2n1 (centres unmarked)

Reply:
1. 10 to 100 nM
2. 10 to 100 nM
3. < 10 nM

Look up IC50 for the entries below, preserving their order.
1. O=C1CCC(N2C(=O)c3ccc(NCCCCS(=O)(=O)N4CCC(n5cc(-c6cnc7ccccc7n6)cn5)CC4)cc3C2=O)C(=O)N1 (centres unmarked)
2. O=C1CCC(N2C(=O)c3ccc(NCCCn4cc(-c5cnc6ccccc6n5)cn4)cc3C2=O)C(=O)N1 (centres unmarked)
3. O=C1CCC(N2C(=O)c3ccc(NCCCCCCn4cc(-c5cnc6cccc(N7CCNCC7)c6n5)cn4)cc3C2=O)C(=O)N1 (centres unmarked)
4. O=C1CCC(N2Cc3c(NC4CCC(Nc5cccc(N6CCC(n7cc(-c8cnc9ccccc9n8)cn7)CC6)c5)CC4)cccc3C2=O)C(=O)N1 (centres unmarked)

Reply:
["100 to 1000 nM", "100 to 1000 nM", "> 1000 nM", "< 10 nM"]

List reported IC50 for each of these compounds:
1. O=C1CCC(N2Cc3ccc(CCCCC4CC(n5cc(-c6cnc7ccccc7n6)cn5)C4)cc3C2=O)C(=O)N1 (centres unmarked)
2. O=C1CCC(N2Cc3ccc(CCCCCC(=O)N4CCC(n5cc(-c6cnc7ccccc7n6)cn5)CC4)cc3C2=O)C(=O)N1 (centres unmarked)
3. O=C1CCC(N2C(=O)c3ccc(N4CCC(CCCn5cc(-c6cnc7ccccc7n6)cn5)CC4)cc3C2=O)C(=O)N1 (centres unmarked)
4. O=C1CCC(N2C(=O)c3ccc(NCCCNC(=O)N4CCC(n5cc(-c6cnc7ccccc7n6)cn5)CC4)cc3C2=O)C(=O)N1 (centres unmarked)
5. O=C1CCC(N2C(=O)c3ccc(NCCCCCCn4cc(-c5cnc6cccc(C7CC7)c6n5)cn4)cc3C2=O)C(=O)N1 (centres unmarked)
6. O=C1CCC(N2C(=O)c3ccc(NC[C@H]4C[C@H](n5cc(-c6cnc7cc(N8CCOCC8)ccc7n6)c(C6CC6)n5)C4)cc3C2=O)C(=O)N1 (some centres unmarked)
7. O=C1CCC(N2C(=O)c3ccc(NCCC[C@H]4C[C@H](n5cc(-c6cnc7c(C8CNC8)cccc7n6)cn5)C4)cc3C2=O)C(=O)N1 (some centres unmarked)
8. O=C1CCC(N2C(=O)c3ccc(NCCCC(F)(F)C(=O)N4CCC(n5cc(-c6cnc7ccccc7n6)cn5)CC4)cc3C2=O)C(=O)N1 (centres unmarked)

Reply:
10 to 100 nM
< 10 nM
> 1000 nM
< 10 nM
10 to 100 nM
< 10 nM
10 to 100 nM
< 10 nM
